1H CSPs [ppm] A29H2 by entry:
System: SL1 RNA
METHOD: RNA-detected NMR binding site mapping (2D-1H,1H-TOCSY and 1D-1H)
Design: species or system SARS-CoV-2
RUN CONDITIONS: RNA-detected 1D-1H
Reply with a number, then the unit it belongs to.

Incoming: Requested field: 1H CSPs [ppm] A29H2. Item: "COc1ccc(-c2nnc(NC(=O)CN(C)C)s2)cc1OC"
Outgoing: 0.0000 ppm

Incoming: Similarly, "CNC(=O)Nc1nc2c(OC)cc(OC)cc2s1" ?
Outgoing: 0.0040 ppm

Incoming: Similarly, "COc1ccc2nc(NC(=O)CN(C)C)sc2c1" ?
Outgoing: 0.0190 ppm

Incoming: Similarly, "CNC(=O)Nc1nc2c(O)cc(O)cc2s1" ?
Outgoing: 0.0190 ppm

Incoming: Similarly, "CNC(=N)Nc1nc2ccc(OC)cc2s1" ?
Outgoing: 0.0670 ppm
